This listing pairs binders with measured pKd.
# targetUnderTest: T1, recombinant LILRA1 ECD (human, UniProt O75019 17-461)
# T1 construct: whole canonical entry named; also called LILA1
# T1 sequence (O75019 17-461 limits assumed): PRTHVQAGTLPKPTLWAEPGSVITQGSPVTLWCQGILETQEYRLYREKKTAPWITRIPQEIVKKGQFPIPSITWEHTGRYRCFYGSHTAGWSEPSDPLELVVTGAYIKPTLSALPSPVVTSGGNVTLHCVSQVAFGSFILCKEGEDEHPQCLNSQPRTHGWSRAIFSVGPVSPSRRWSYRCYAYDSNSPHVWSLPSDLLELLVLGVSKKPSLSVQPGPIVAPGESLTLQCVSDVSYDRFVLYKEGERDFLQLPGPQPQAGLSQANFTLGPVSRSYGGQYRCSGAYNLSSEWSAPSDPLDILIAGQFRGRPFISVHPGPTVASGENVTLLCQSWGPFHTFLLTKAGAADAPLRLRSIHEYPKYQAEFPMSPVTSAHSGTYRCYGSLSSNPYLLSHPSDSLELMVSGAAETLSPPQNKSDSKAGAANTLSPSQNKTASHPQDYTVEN
# testMethodNotes: BLI, IgG on AHC sensor, ECD in solution
Note: pKd values are expressed as the negative base-10 logarithm of concentration in M.

Solved cases below.
A-015 (antibody, V domains shown, tested as IgG) VH: QVQLVQSGAEVKKPGSSVKVSCKASGGSFQSYAINWVRQAPGQGLEWMGGIIPGFSTANYAQKFQGRVTITADESTSTAYMELSSLRSEDTAVYYCAKDLGTYSSGWPYYYGMDVWGQGTTVTVSS VL: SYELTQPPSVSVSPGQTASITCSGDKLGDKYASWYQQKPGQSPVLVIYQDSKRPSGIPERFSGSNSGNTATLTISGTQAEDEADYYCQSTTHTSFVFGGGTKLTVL :: 6.06
A-012 (antibody, V domains shown, tested as IgG) VH: QVQLVQSGAEVKKPGSSVKVSCKASGGTISEYAFLWVRQAPGQGLEWMGGIIPKFHTANYAQKFQGRVTITADESTSTAYMELSSLRSEDTAVYYCAKDLGTYSSGWPYYYGMDVWGQGTTVTVSS VL: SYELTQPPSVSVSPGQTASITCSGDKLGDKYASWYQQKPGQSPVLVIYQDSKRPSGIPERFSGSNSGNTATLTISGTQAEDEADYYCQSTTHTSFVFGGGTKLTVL :: 6.33

Q. Need pKd, item A-001 (antibody, V domains shown, tested as IgG; also called parental antibody A-001) VH: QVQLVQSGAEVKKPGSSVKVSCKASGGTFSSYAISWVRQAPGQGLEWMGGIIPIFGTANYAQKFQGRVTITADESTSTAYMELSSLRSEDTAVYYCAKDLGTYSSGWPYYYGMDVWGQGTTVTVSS VL: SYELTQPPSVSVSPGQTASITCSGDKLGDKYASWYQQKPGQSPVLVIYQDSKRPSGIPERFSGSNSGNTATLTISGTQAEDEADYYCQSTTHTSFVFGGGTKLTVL
A. 5.74
